Molecular target: UniProt P35372
Sequence (P35372 whole entry): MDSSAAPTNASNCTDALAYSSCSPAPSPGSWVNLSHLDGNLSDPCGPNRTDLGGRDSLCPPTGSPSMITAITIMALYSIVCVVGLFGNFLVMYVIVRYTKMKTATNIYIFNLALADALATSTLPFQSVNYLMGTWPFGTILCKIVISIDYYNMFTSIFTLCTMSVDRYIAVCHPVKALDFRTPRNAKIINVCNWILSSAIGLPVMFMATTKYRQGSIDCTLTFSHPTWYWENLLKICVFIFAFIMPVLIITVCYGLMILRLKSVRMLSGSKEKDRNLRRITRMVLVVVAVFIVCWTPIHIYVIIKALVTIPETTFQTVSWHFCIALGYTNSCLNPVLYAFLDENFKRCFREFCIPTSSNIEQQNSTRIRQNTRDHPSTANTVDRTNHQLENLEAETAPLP
Test: cell-based
Format: cell-based
Parameters: expressed in transfected cells; HEK293-Glo20F cells (cAMP)
Conditions: read-out: MOPr (cAMP) Emax
Starred links: 1 amine or outer side, 2 acyl side, 3 side chain; linkers in the order of their positions; H or OH if unused. Non-standard residues stand in square brackets, D forms with d. Residues, ends and D or L forms follow the SMILES beside them. Nva(5-(4-Bn-piperidin-1-yl)) = N[C@@H](CCCN1CCC(Cc2ccccc2)CC1)C(=O)O; X5 = O=C1[C@@H](N[*:1])Cc2ccccc2CN1CCCC(=O)[*:2]; X1 = O=C1[C@@H](N[*:1])Cc2ccccc2CN1CCC(=O)[*:2]; Dmt = Cc1cc(O)cc(C)c1C[C@H](N)C(=O)O
READOUT NAME: Emax (%)

[[record]]
compound = "Cc1cc(O)cc(C)c1C[C@H](N)C(=O)N[C@H](CCCNC(=N)N)C(=O)N[C@H]1Cc2c(ccc3ccccc23)CN(CC(=O)N[C@@H](CCCN2CCC(Cc3ccccc3)CC2)C(=O)N[C@@H](Cc2ccccc2)C(N)=O)C1=O"
unit_descriptor = "%"
data_value = 90

[[record]]
compound = "Cc1cc(O)cc(C)c1C[C@H](N)C(=O)N[C@H](CCCNC(=N)N)C(=O)N[C@H]1Cc2ccccc2CN(CCCC(=O)N[C@@H](CCCN2CCC(Cc3ccccc3)CC2)C(=O)N[C@@H](Cc2c[nH]c3ccccc23)C(N)=O)C1=O [DP0022, H-Dmt-D-Arg-AbaGABA-Bpa-Trp-NH2] (H-[Dmt][dR][X5][Nva(5-(4-Bn-piperidin-1-yl))]W-NH2)"
unit_descriptor = "%"
data_value = 90

[[record]]
compound = "Cc1cc(O)cc(C)c1C[C@H](N)C(=O)N[C@H](CCCNC(=N)N)C(=O)N[C@H]1Cc2ccccc2CN(CCC(N)=O)C1=O [KGOP01, reference compound]"
unit_descriptor = "%"
data_value = 89

[[record]]
compound = "Cc1cc(O)cc(C)c1C[C@H](N)C(=O)N[C@H](CCCNC(=N)N)C(=O)N[C@H]1Cc2ccccc2CN(CCC(=O)N[C@@H](CCCN2CCC(Cc3ccccc3)CC2)C(=O)N[C@@H](Cc2ccc(O)cc2)C(N)=O)C1=O [DP0004, H-Dmt-D-Arg-Aba-β-Ala-Bpa-Tyr-NH2] (H-[Dmt][dR][X1][Nva(5-(4-Bn-piperidin-1-yl))]Y-NH2)"
unit_descriptor = "%"
data_value = 88

